Reference source for all entries: PubChem BioAssay (EPA / NIEHS)

molecular target: human Phosphodiesterase 10 (PDE10), PDE10A (gene 10846) (UniProt Q9Y233); assay: NVS_ENZ_hPDE10: NovaScreen (NVS) Enzymatic Assay for human Phosphodiesterase 10 (PDE10) (AID 2283195)
Sequence (Q9Y233 whole entry, looked up): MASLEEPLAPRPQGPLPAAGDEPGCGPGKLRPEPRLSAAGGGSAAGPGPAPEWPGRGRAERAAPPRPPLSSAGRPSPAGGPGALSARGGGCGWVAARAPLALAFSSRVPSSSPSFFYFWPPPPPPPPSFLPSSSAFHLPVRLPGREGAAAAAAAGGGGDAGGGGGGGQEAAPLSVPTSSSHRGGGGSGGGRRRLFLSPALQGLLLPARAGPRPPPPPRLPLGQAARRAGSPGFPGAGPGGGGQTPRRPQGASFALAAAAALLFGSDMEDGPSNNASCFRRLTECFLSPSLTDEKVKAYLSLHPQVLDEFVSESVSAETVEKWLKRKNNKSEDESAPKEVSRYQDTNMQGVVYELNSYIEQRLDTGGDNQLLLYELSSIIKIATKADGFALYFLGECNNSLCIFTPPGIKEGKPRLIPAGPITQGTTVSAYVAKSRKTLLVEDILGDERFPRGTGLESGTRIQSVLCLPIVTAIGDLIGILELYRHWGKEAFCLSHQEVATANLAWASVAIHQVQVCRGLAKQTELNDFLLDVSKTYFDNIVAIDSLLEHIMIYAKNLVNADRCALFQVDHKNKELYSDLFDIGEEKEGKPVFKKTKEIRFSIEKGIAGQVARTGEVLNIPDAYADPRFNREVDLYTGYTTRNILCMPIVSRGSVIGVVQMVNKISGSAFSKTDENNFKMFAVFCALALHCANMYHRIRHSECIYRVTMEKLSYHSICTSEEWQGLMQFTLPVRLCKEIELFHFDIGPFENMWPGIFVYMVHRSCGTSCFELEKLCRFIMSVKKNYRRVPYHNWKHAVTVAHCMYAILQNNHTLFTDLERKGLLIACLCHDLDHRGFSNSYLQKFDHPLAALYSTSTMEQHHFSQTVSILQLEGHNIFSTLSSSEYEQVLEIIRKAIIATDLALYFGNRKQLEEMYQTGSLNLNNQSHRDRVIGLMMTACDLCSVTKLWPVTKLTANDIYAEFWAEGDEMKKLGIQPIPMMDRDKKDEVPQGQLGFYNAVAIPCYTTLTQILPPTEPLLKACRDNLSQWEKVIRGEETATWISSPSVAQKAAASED
Results filed as inconclusive are left out. The source made the active and inactive calls. Rule for the calls: active = hit-call score of the fitted dose curve at least 0.9, where 1 is the maximum; inconclusive = response in the unintended direction; inactive = score below 0.9.
Use one of these outcomes when replying: t for active, f for inactive

O=CN1CCCCC1 :: f

Q: // return assay outcome for CCCCCCCCCCCCCCCC[N+](C)(C)CC
A: f

Q: Would you mind telling me which call this test gave Cc1ccc(C2OC[C@@H]3OC(c4ccc(C)cc4)O[C@H]([C@H](O)CO)[C@@H]3O2)cc1 (some centres not stated) ?
A: f

Q: Tell me the assay call for O=C1CCCC(=O)O1 please.
A: f

Q: Call for entry Cc1ccc(N)c([N+](=O)[O-])c1 :
A: t

Q: Given Cn1c(=O)[nH]c2ncn(C)c2c1=O , state the outcome it received in this test.
A: f

Q: For CC1OC1C1CCC2(C)OC2C1 (configuration not stated) , which call appears in the assay record?
A: f
